Molecular target: AURKA (Homo sapiens)
Sequence (O14965 1-403): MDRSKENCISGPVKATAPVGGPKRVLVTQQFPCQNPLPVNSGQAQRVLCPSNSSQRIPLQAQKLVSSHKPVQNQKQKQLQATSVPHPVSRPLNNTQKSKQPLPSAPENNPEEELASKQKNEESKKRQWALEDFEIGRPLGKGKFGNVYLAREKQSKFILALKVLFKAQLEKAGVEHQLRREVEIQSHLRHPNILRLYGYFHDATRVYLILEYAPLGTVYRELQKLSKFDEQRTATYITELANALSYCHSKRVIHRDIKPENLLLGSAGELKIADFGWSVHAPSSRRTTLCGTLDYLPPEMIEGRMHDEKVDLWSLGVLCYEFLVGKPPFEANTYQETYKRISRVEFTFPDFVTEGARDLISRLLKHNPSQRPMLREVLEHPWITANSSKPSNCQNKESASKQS
Assay: Kinase Profiler, residual kinase activity
Assay type: biochemical
Conditions: AURKA; inhibitor at 500 nM; read-out: percentage of the remaining kinase activity
Description: Kinase Profiler services provided by […]. (http://www.reactionbiology.com) were used to analyze the data of the 9 type-S protein kinase inhibitors against the 40 types of protein kinases.
Below, each of the molecules is paired with its reported remaining activity at 0.5 µM value.
Provide only the numeric value, understood in %.

molecule: COC1C(N(C)C(=O)C(N)CCC(=O)O)CC2OC1(C)n1c3ccccc3c3c4c(c5c6ccccc6n2c5c31)C(=O)NC4 (stereo not shown)
remaining activity at 0.5 µM [%]: 0.9
--
molecule: COC1C(N(C)C(=O)C(N)Cc2cn(C(=O)OC(C)(C)C)c3ccccc23)CC2OC1(C)n1c3ccccc3c3c4c(c5c6ccccc6n2c5c31)C(=O)NC4 (stereo not shown)
remaining activity at 0.5 µM [%]: 86.2

[in] Notebook entry, AURKA (Homo sapiens) assay: remaining activity at 0.5 µM of COC1C(N(C)C(=O)C(N)CCC(=O)OC(C)(C)C)CC2OC1(C)n1c3ccccc3c3c4c(c5c6ccccc6n2c5c31)C(=O)NC4 (stereo not shown) = ?
[out] 5.3

[in] Notebook entry, AURKA (Homo sapiens) assay: remaining activity at 0.5 µM of COC1C(N(C)C(=O)C(N)Cc2ccc(O)cc2)CC2OC1(C)n1c3ccccc3c3c4c(c5c6ccccc6n2c5c31)C(=O)NC4 (stereo not shown) = ?
[out] 4.9

====

molecular target: PIM1 (Homo sapiens, UniProt P11309); assay: Kinase Profiler, residual kinase activity; assay type: biochemical; settings: PIM1; inhibitor at 500 nM; read-out: percentage of the remaining kinase activity
Sequence (P11309 whole entry): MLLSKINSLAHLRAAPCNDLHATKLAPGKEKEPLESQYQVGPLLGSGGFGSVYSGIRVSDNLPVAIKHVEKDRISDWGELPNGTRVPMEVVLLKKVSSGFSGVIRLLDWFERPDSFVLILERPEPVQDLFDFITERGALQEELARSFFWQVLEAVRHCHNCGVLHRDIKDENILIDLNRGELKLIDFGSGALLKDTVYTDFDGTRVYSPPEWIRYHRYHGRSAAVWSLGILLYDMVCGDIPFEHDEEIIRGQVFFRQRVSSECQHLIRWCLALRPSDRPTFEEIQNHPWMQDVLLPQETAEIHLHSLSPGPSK
Mark 1 only when remaining activity at 0.5 µM stays strictly below 20%. Values equal to the cut-off are -1.

Worked cases, answers included:
compound: COC1C(N(C)C(=O)C(N)CCC(=O)OC(C)(C)C)CC2OC1(C)n1c3ccccc3c3c4c(c5c6ccccc6n2c5c31)C(=O)NC4 (stereo not shown)
assignedClass: -1

compound: COC1C(N(C)C(=O)C(N)Cc2ccc(O)cc2)CC2OC1(C)n1c3ccccc3c3c4c(c5c6ccccc6n2c5c31)C(=O)NC4 (stereo not shown)
assignedClass: 1

compound: COC1C(N(C)C(=O)C(N)CCC(=O)O)CC2OC1(C)n1c3ccccc3c3c4c(c5c6ccccc6n2c5c31)C(=O)NC4 (stereo not shown)
assignedClass: 1

compound: COC1C(N(C)Cc2ccc(-c3ccccc3)cc2)CC2OC1(C)n1c3ccccc3c3c4c(c5c6ccccc6n2c5c31)C(=O)NC4 (stereo not shown)
assignedClass: -1

compound: COC1C(N(C)C(=O)C(N)Cc2c[nH]cn2)CC2OC1(C)n1c3ccccc3c3c4c(c5c6ccccc6n2c5c31)C(=O)NC4 (stereo not shown)
assignedClass: 1

[in] Hello, is remaining activity at 0.5 µM of the following compound strictly smaller than 20%? COC1C(N(C)C(=O)C(N)Cc2ccc(OC(C)(C)C)cc2)CC2OC1(C)n1c3ccccc3c3c4c(c5c6ccccc6n2c5c31)C(=O)NC4 (stereo not shown)
[out] -1

[in] Hello, is remaining activity at 0.5 µM of the following compound strictly smaller than 20%? COC1C(N(C)C(=O)C(N)Cc2cn(C(=O)OC(C)(C)C)c3ccccc23)CC2OC1(C)n1c3ccccc3c3c4c(c5c6ccccc6n2c5c31)C(=O)NC4 (stereo not shown)
[out] -1

====

Target: INSR (Homo sapiens)
Construct: purchased Research Biology Corp. (http://www.reactionbiology.com)
Sequence (P06213 28-1382): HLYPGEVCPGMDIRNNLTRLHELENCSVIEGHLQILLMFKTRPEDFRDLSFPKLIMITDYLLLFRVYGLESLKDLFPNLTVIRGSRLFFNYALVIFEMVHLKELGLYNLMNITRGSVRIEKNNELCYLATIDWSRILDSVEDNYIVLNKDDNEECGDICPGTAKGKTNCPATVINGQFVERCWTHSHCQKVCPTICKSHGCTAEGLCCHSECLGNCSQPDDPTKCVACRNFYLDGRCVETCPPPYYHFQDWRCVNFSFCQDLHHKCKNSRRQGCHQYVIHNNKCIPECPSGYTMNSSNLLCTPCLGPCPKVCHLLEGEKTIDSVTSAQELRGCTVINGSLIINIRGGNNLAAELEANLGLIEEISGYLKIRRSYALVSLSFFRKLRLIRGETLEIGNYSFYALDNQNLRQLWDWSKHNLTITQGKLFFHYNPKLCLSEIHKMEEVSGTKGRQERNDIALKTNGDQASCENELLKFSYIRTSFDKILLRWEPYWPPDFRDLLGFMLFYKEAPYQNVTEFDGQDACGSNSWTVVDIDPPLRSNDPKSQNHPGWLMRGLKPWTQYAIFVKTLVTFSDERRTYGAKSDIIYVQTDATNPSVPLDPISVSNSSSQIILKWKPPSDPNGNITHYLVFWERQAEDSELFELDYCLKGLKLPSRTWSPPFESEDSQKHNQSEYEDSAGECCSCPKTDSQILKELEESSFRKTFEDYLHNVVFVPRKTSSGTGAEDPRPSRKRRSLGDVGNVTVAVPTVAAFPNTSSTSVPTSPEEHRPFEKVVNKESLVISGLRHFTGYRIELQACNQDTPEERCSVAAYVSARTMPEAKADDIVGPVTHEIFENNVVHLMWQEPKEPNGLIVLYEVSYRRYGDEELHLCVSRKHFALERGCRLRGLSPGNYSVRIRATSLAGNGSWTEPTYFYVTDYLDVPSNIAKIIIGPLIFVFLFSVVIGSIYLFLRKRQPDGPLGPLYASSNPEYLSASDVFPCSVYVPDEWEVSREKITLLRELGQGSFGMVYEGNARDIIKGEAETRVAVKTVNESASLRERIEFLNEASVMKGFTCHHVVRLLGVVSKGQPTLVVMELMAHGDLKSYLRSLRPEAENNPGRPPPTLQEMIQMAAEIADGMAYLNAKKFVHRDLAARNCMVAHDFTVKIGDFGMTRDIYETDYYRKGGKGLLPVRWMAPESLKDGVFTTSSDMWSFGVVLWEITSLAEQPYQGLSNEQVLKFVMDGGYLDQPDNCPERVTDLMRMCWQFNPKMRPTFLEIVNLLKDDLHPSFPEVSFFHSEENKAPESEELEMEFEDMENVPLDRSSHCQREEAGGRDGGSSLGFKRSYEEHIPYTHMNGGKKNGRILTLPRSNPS
Test: Kinase Profiler, residual kinase activity
Type: biochemical
Conditions: INSR; inhibitor at 500 nM; read-out: percentage of the remaining kinase activity
Text: Kinase Profiler services provided by […]. (http://www.reactionbiology.com) were used to analyze the data of the 9 type-S protein kinase inhibitors against the 40 types of protein kinases.
readoutType: remaining activity at 0.5 µM (%)
Provide only the numeric value, understood in %.

compound: COC1C(N(C)C(=O)C(N)Cc2ccc(OC(C)(C)C)cc2)CC2OC1(C)n1c3ccccc3c3c4c(c5c6ccccc6n2c5c31)C(=O)NC4 (stereo not shown)
assayTarget: INSR (Homo sapiens)
remaining activity at 0.5 µM, %: 84.8

[in] Bench note: what remaining activity at 0.5 µM did COC1C(N(C)C(=O)C(N)Cc2ccc(O)cc2)CC2OC1(C)n1c3ccccc3c3c4c(c5c6ccccc6n2c5c31)C(=O)NC4 (stereo not shown) show?
[out] 69.1

[in] Bench note: what remaining activity at 0.5 µM did COC1C(N(C)C(=O)C(N)CCC(=O)OC(C)(C)C)CC2OC1(C)n1c3ccccc3c3c4c(c5c6ccccc6n2c5c31)C(=O)NC4 (stereo not shown) show?
[out] 72.3

[in] Bench note: what remaining activity at 0.5 µM did COC1C(N(C)C(=O)C(N)Cc2c[nH]cn2)CC2OC1(C)n1c3ccccc3c3c4c(c5c6ccccc6n2c5c31)C(=O)NC4 (stereo not shown) show?
[out] 23.1

[in] Bench note: what remaining activity at 0.5 µM did COC1C(N(C)C(=O)C(N)CCC(=O)O)CC2OC1(C)n1c3ccccc3c3c4c(c5c6ccccc6n2c5c31)C(=O)NC4 (stereo not shown) show?
[out] 32.8

[in] Bench note: what remaining activity at 0.5 µM did COC1C(N(C)Cc2ccc(-c3ccccc3)cc2)CC2OC1(C)n1c3ccccc3c3c4c(c5c6ccccc6n2c5c31)C(=O)NC4 (stereo not shown) show?
[out] 79.1

[in] Bench note: what remaining activity at 0.5 µM did COC1C(N(C)C(=O)C(N)Cc2cn(C(=O)OC(C)(C)C)c3ccccc23)CC2OC1(C)n1c3ccccc3c3c4c(c5c6ccccc6n2c5c31)C(=O)NC4 (stereo not shown) show?
[out] 97.9

====

molecular target: MAP2K1 (Homo sapiens, UniProt Q02750); construct: purchased Research Biology Corp. (http://www.reactionbiology.com); experiment: Kinase Profiler, residual kinase activity; type: biochemical; conditions: MAP2K1; inhibitor at 500 nM; read-out: percentage of the remaining kinase activity
Sequence (Q02750 whole entry): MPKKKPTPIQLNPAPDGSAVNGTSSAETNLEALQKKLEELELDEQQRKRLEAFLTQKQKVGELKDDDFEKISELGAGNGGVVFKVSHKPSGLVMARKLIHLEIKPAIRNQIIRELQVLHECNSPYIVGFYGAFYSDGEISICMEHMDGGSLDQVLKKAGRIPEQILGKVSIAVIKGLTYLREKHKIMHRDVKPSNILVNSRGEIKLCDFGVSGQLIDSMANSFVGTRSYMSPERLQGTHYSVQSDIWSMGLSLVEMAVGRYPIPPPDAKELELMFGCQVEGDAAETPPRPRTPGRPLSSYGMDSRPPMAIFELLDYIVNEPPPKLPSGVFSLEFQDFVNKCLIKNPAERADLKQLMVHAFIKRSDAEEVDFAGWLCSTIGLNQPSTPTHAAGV
Below, each of the compounds is paired with its reported remaining activity at 0.5 µM value.
Provide only the numeric value, understood in %.

Worked examples follow.
compound: CN[C@@H]1C[C@H]2O[C@@](C)([C@@H]1OC)n1c3ccccc3c3c4c(c5c6ccccc6n2c5c31)C(=O)NC4 [STU, staurosporine, reference compound]
assayTarget: MAP2K1 (Homo sapiens, UniProt Q02750)
remaining activity at 0.5 µM (%): 11.5
//
compound: COC1C(N(C)Cc2ccc(-c3ccccc3)cc2)CC2OC1(C)n1c3ccccc3c3c4c(c5c6ccccc6n2c5c31)C(=O)NC4 (centres unmarked) [Compound 9]
assayTarget: MAP2K1 (Homo sapiens, UniProt Q02750)
remaining activity at 0.5 µM (%): 66.1
//
compound: COC1C(N(C)C(=O)C(N)Cc2c[nH]cn2)CC2OC1(C)n1c3ccccc3c3c4c(c5c6ccccc6n2c5c31)C(=O)NC4 (centres unmarked) [Compound 1]
assayTarget: MAP2K1 (Homo sapiens, UniProt Q02750)
remaining activity at 0.5 µM (%): 79.8
//
compound: COC1C(N(C)C(=O)C(N)Cc2cn(C(=O)OC(C)(C)C)c3ccccc23)CC2OC1(C)n1c3ccccc3c3c4c(c5c6ccccc6n2c5c31)C(=O)NC4 (centres unmarked) [Compound 2]
assayTarget: MAP2K1 (Homo sapiens, UniProt Q02750)
remaining activity at 0.5 µM (%): 105

[in] Bench note: what remaining activity at 0.5 µM did COC1C(N(C)C(=O)C(N)CCC(=O)OC(C)(C)C)CC2OC1(C)n1c3ccccc3c3c4c(c5c6ccccc6n2c5c31)C(=O)NC4 (centres unmarked) [Compound 6] show?
[out] 101

====

target: CHEK2 (Homo sapiens, UniProt O96017); assay: Kinase Profiler, residual kinase activity; type: biochemical; conditions: CHEK2; inhibitor at 500 nM; read-out: percentage of the remaining kinase activity
Sequence (O96017 whole entry): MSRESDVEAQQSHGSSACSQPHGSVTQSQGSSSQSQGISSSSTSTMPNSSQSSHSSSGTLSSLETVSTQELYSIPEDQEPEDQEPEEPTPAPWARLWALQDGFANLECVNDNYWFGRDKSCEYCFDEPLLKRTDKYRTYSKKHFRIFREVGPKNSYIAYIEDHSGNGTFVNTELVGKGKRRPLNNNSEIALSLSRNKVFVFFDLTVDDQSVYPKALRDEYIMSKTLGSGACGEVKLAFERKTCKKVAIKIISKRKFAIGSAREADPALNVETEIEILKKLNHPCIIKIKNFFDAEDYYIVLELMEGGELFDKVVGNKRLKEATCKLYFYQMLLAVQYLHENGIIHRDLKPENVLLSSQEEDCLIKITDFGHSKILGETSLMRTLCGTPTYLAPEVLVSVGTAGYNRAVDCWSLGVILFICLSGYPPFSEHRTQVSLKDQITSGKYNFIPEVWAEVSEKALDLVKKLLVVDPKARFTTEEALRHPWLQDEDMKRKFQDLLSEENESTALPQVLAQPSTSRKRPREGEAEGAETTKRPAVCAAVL
readoutType: remaining activity at 0.5 µM (%)
Provide only the numeric value, understood in %.

Worked examples follow.
molecule: COC1C(N(C)C(=O)C(N)CCC(=O)O)CC2OC1(C)n1c3ccccc3c3c4c(c5c6ccccc6n2c5c31)C(=O)NC4 (stereo not shown) [Compound 7]
remaining activity at 0.5 µM [%]: 47.2
//
molecule: COC1C(N(C)C(=O)C(N)Cc2c[nH]cn2)CC2OC1(C)n1c3ccccc3c3c4c(c5c6ccccc6n2c5c31)C(=O)NC4 (stereo not shown) [Compound 1]
remaining activity at 0.5 µM [%]: 30.3
//
molecule: COC1C(N(C)C(=O)C(N)Cc2ccc(O)cc2)CC2OC1(C)n1c3ccccc3c3c4c(c5c6ccccc6n2c5c31)C(=O)NC4 (stereo not shown) [Compound 5]
remaining activity at 0.5 µM [%]: 73.2

[in] Notebook entry, CHEK2 (Homo sapiens, UniProt O96017) assay: remaining activity at 0.5 µM of COC1C(N(C)Cc2ccc(-c3ccccc3)cc2)CC2OC1(C)n1c3ccccc3c3c4c(c5c6ccccc6n2c5c31)C(=O)NC4 (stereo not shown) [Compound 9] = ?
[out] 37.7

[in] Notebook entry, CHEK2 (Homo sapiens, UniProt O96017) assay: remaining activity at 0.5 µM of COC1C(N(C)C(=O)C(N)Cc2ccc(OC(C)(C)C)cc2)CC2OC1(C)n1c3ccccc3c3c4c(c5c6ccccc6n2c5c31)C(=O)NC4 (stereo not shown) [Compound 4] = ?
[out] 80.4

[in] Notebook entry, CHEK2 (Homo sapiens, UniProt O96017) assay: remaining activity at 0.5 µM of COC1C(N(C)C(=O)C(N)Cc2cn(C(=O)OC(C)(C)C)c3ccccc23)CC2OC1(C)n1c3ccccc3c3c4c(c5c6ccccc6n2c5c31)C(=O)NC4 (stereo not shown) [Compound 2] = ?
[out] 95.8

[in] Notebook entry, CHEK2 (Homo sapiens, UniProt O96017) assay: remaining activity at 0.5 µM of COC1C(N(C)C(=O)C(N)CCC(=O)OC(C)(C)C)CC2OC1(C)n1c3ccccc3c3c4c(c5c6ccccc6n2c5c31)C(=O)NC4 (stereo not shown) [Compound 6] = ?
[out] 82.7
